src = the supplement of paper PMC12494721

Reported growth is given for each of the following compounds.
tested on: Escherichia coli IAI1; assay: growth (OD595) fold change vs plate DMSO controls (fold change (ratio)); higher = more growth; settings: incubation time: 27 h, anaerobic, 37 °C
Counter-ions that a name gives are not always drawn.

Examples from the recorded data:
INSERT INTO measurements (compound, result) VALUES
  ('CC1c2cccc(O)c2C(O)=C2C(=O)C3(O)C(O)=C(C(N)=O)C(=O)C(N(C)C)C3C(O)C21 (centres undefined) [Doxycycline hydrochloride] (20 µM)', 0.0209),
  ('CNC(=C[N+](=O)[O-])NCCSCc1ccc(CN(C)C)o1 [Ranitidine hydrochloride] (20 µM)', 1.01),
  ('COC(=O)N/N=C/c1c[n+]([O-])c2ccccc2[n+]1[O-] [Carbadox] (20 µM)', 0.0346);

Please examine the following record next.
Task: # query: growth of entry COc1c(N2C[C@@H]3CCCN[C@@H]3C2)c(F)cc2c(=O)c(C(=O)O)cn(C3CC3)c12 [Moxifloxacin] (20 µM)
Output: 0.0497
